Value source: patent US20260130885A1

- Test system: MRSA USA300
- MEASUREMENT PROTOCOL: Antibacterial activity assay (MIC by broth microdilution, MBC by subculture)
- Format: cell-based, Staphylococcus aureus
- TEST CONTEXT: +8 mg/L DHA
QUANTITY: MBC

>  <COMPOUND>
O=C(NC1CCCCC1)C(CCCl)C(=O)NC1CCCCC1

>  <MBC>
>64 µg/mL

$$$$

For the next question, use this compound.
Form: compound = O=C(Nc1ccc(Cl)c(C(F)(F)F)c1)C(CCCl)C(=O)NC1CCCCC1 (centres unmarked) ; MBC = 2 µg/mL

----------
- MEASUREMENT PROTOCOL: Antiproliferation assay (MTT)
- Format: cell-based
- TEST CONTEXT: human, HEK-293 cells, DHA 8 mg/L, read-out: CC50 of SC5005
QUANTITY: CC50 at 24 h (µg/mL)
State the answer as a number, implicitly in µg/mL.

The recorded CC50 at 24 h for "O=C(Nc1ccc(Cl)c(C(F)(F)F)c1)C(CCCl)C(=O)Nc1ccc(Cl)c(C(F)(F)F)c1" is 14.9
